Can you tell me relative viability for the items I'm about to list?
Test system: NCI-H1563
test_details: relative viability (nuclei count vs DMSO), 5 days (fraction); higher = more cells survive
run_parameters: first compound 0.253 µM
Answers are plain numbers.

Nc1cccc2c1CN(C1CCC(=O)NC1=O)C2=O (stereo not given) [Lenalidomide] + CC(C)C[C@H](NC(=O)[C@H](Cc1ccccc1)NC(=O)c1cnccn1)B(O)O [Bortezomib] (partner 0.002 µM) = 0.807
Nc1cccc2c1CN(C1CCC(=O)NC1=O)C2=O (stereo not given) [Lenalidomide] + CCNC(=O)c1noc(-c2cc(C(C)C)c(O)cc2O)c1-c1ccc(CN2CCOCC2)cc1 [Luminespib] (partner 0.01 µM) = 0.535
Nc1cccc2c1CN(C1CCC(=O)NC1=O)C2=O (stereo not given) [Lenalidomide] + Cc1nc(NC(=O)N2CCC[C@H]2C(N)=O)sc1-c1ccnc(C(C)(C)C(F)(F)F)c1 [Alpelisib] (partner 2 µM) = 0.843

For the 2 compounds below, give their relative viability values.
1. Nc1cccc2c1CN(C1CCC(=O)NC1=O)C2=O (stereo not given) [Lenalidomide] + COc1cccc2cc(-c3nc([C@H]4CC[C@H](C(=O)O)CC4)n4ncnc(N)c34)[nH]c12 [OSI-027] (partner 0.5 µM)
2. Nc1cccc2c1CN(C1CCC(=O)NC1=O)C2=O (stereo not given) [Lenalidomide] + CS(=O)(=O)N1CCN(Cc2cc3nc(-c4cccc5[nH]ncc45)nc(N4CCOCC4)c3s2)CC1 [Pictilisib] (partner 1 µM)

Solution:
1. 0.751
2. 0.713

Just for reference, the supplement of paper PMC10307832 is where these values come from.
